The measurements presented in this section are drawn from patent US12594292B2.

System: SARS-CoV-2
Assay: SARS-CoV-2 infection assay in Calu-3 cells, nucleocapsid immunofluorescence (Example 6)
Details: MOI 0.01, 44 hour

{"columns": ["COMPOUND", "UNIT STRING", "EC90"],
 "data": [
  ["CCCCCCCCCCCCCCCCCCOCCO[P@]1(=O)OC[C@H]2O[C@](C#N)(c3ccc4c(N)ncnn34)[C@H](O)[C@@H]2O1", "nM", 19200],
  ["CCCCCCCCCCCCCCOC[C@H](COP(=O)(O)OC[C@H]1O[C@@](C#N)(c2ccc3c(N)ncnn23)[C@H](O)[C@@H]1O)OCc1ccccc1 [Compound 15a]", "nM", 536],
  ["CCCCCCCCCCCCCCCCCCOCC(COP(=O)(O)OC[C@H]1O[C@@](C#N)(c2ccc3c(N)ncnn23)[C@H](O)[C@@H]1O)OCc1ccccc1 (mixture of isomers) [Compound 15e]", "nM", 763],
  ["CCCCCCCCCCCCCCCCCCOC[C@H](COP(=O)(O)OC[C@H]1O[C@@](C#N)(c2ccc3c(N)ncnn23)[C@H](O)[C@@H]1O)OCCCCCCCC [Compound 15f]", "nM", 2310]
]}

###

Test: CellTiter-Glo luminescent cell viability assay, Vero E6 (Example 3)
Type: cell-based
Conditions: African green monkey; Vero E6 cells, Cell Titer Glo, 48.5 hours; read-out: CC50
MEASUREMENT NAME: CC50 at 48.5 h

{"columns": ["MOLECULE", "READOUT VALUE"],
 "data": [
  ["CCC(CC)COC(=O)[C@H](C)N[P@](=O)(OC[C@H]1O[C@@](C#N)(c2ccc3c(N)ncnn23)[C@H](O)[C@@H]1O)Oc1ccccc1 [RDV, Remdesivir, reference compound]", "> 100 µM"]
]}

###

Tested on: Caco-2 cells
Assay: Cell viability assay CellTiter-Glo, Caco-2 cells (Example 7)
Conditions: Caco-2 cells, CellTiter-Glo

{"columns": ["COMPOUND", "TESTED TARGET", "RELATION QUALIFIER", "CC50 / µM"],
 "data": [
  ["CCCCCCCCCCCCCCCCCCOC[C@H](COP(=O)(O)OC[C@H]1O[C@@](C#N)(c2ccc3c(N)ncnn23)[C@H](O)[C@@H]1O)OCc1ccccc1 [Compound 15d]", "Caco-2 cells", "=", 88.4],
  ["CCCCCCCCCCCCCCCCCCOCCOP(=O)(O)OC[C@H]1O[C@@](C#N)(c2ccc3c(N)ncnn23)[C@H](O)[C@@H]1O", "Caco-2 cells", ">", 100]
]}

###

CC50 values by entry
Tested on: VERO E6 cells
Assay: CellTiter-Glo luminescent cell viability assay, Vero E6 (Example 3)
Assay type: cell-based
MEASUREMENT NAME: CC50

{"columns": ["MOLECULE", "READOUT VALUE"],
 "data": [
  ["CCCCCCCCCCCCCCCCOCCCOP(=O)(O)OC[C@H]1O[C@@](C#N)(c2ccc3c(N)ncnn23)[C@H](O)[C@@H]1O", "51 µM"],
  ["CCCCCCCCCCCCCCCCCCOC[C@H](COP(=O)(O)OC[C@H]1O[C@@](C#N)(c2ccc3c(N)ncnn23)[C@H](O)[C@@H]1O)OCc1ccccc1 [Compound 15d]", "46 µM"],
  ["CCCCCCCCCCCCCCCCCCOCCOP(=O)(O)OC[C@H]1O[C@@](C#N)(c2ccc3c(N)ncnn23)[C@H](O)[C@@H]1O", "> 100 µM"]
]}
